Every entry's value here was drawn from patent US20040086503A1.

# system.tested: extracellular domain of IGF-IR (human) (UniProt P08069)
# protocol.description: SPR (BIAcore 3000), Protocol 1: antibody captured on protein A, IGF-IR ECD injected
measured.attribute: pKd
Hey, just a heads up that pKd is the negative log base 10 of the concentration in molar.

See these solved cases before continuing.
binder	pKd
anti-IGF-IR antibody 2.14.3 (antibody, human IgG2, V domains shown) VH: GPGLVKPSETLSLTCTVSGGSISNYYWSWIRQPAGKGLEWIGRIYTSGSPNYNPSLKSRVTMSVDTSKNQFSLKLNSVTAADTAVYYCAVTIFGVVIIFDYWGQGTLVTVSS VL: SSLSASVGDRVTFTCRASQDIRRDLGWYQQKPGKAPKRLIYAASRLQSGVPSRFSGSGSGTEFTLTISSLQPEDFATYYCLQHNNYPRTFGQGTEVEIIR	9.19
anti-IGF-IR antibody 4.17.3 (antibody, human IgG2, V domains shown) VH: PGLVKPSETLSLTCTVSGGSISSYYWSWIRQPPGKGLEWIGYIYYSGSTNYNPSLKSRVTISVDTSKNQFSLKLSSVTAADTAVYYCARTYSSSFYYYGMDVWGQGTTVTVSS VL: GDRVTITCRASQSISTFLNWYQQKPGKAPKLLIHVASSLQGGVPSRFSGSGSGTDFTLTISSLQPEDFATYYCQQSYNAPLTFGGGTKVEIK	7.89

Kindly review the next binder as well.
Reported pKd for anti-IGF-IR antibody 2.13.2 (antibody, V domains shown) VH: EVQLLESGGGLVQPGGSLRLSCTASGFTFSSYAMNWVRQAPGKGLEWVSAISGSGGTTFYADSVKGRFTISRDNSRTTLYLQMNSLRAEDTAVYYCAKDLGWSDSYYYYYGMDVWGQGTTVTVSS VL: DIQMTQFPSSLSASVGDRVTITCRASQGIRNDLGWYQQKPGKAPKRLIYAASRLHRGVPSRFSGSGSGTEFTLTISSLQPEDFATYYCLQHNSYPCSFGQGTKLEIKR was 8.46
